Source: the NIST ThermoML archive (doi:10.1016/j.tca.2017.12.024)

Below, each of the molecules is paired with its reported Normal melting temperature value.
settings: Crystal; DTA
± gives the expanded uncertainty stated by the source.
metric name: Normal melting temperature

structure string: CCCCCCCCCCCC(=O)O
metric name: Normal melting temperature
observed measurement: 43.60 ± 3 °C
--
structure string: CCCCCCCCCC(=O)O
metric name: Normal melting temperature
observed measurement: 32.00 ± 3 °C
--
structure string: CCCCCCCCCCCCCC(=O)O
metric name: Normal melting temperature
observed measurement: 54.70 ± 3 °C
--
structure string: CCCCCCCCCCCCCCCCCC(=O)O
metric name: Normal melting temperature
observed measurement: 68.40 ± 3 °C
--
structure string: CCCCCCCCCCCCCCCC(=O)O
metric name: Normal melting temperature
observed measurement: 61.70 ± 3 °C

----------
assay: Molar enthalpy of transition or fusion; details: Crystal; DSC
Below, each of the compounds is paired with its reported Molar enthalpy of transition or fusion value.
metric name: Molar enthalpy of transition or fusion (kcal/mol)

structure string: CCCCCCCCCC(=O)O
observed measurement: 5.97
//
structure string: CCCCCCCCCCCCCCCC(=O)O
observed measurement: 12.6
//
structure string: CCCCCCCCCCCCCC(=O)O
observed measurement: 10.2
//
structure string: CCCCCCCCCCCCCCCCCC(=O)O
observed measurement: 14.3
//
structure string: CCCCCCCCCCCC(=O)O
observed measurement: 8.43
